endpoint-name: log10 of IC50 (log10 of the value in nM)
Please interpret these as log10 of IC50 where IC50 is in nM.

### Prompt Determine reported log10 of IC50 for O=C(N1CCCCC1)n1nc(-c2ccc(Cl)cc2)nc1SCC(F)(F)F ; test system: Cholinesterase (Homo sapiens, UniProt P06276).
Sequence (P06276 whole entry): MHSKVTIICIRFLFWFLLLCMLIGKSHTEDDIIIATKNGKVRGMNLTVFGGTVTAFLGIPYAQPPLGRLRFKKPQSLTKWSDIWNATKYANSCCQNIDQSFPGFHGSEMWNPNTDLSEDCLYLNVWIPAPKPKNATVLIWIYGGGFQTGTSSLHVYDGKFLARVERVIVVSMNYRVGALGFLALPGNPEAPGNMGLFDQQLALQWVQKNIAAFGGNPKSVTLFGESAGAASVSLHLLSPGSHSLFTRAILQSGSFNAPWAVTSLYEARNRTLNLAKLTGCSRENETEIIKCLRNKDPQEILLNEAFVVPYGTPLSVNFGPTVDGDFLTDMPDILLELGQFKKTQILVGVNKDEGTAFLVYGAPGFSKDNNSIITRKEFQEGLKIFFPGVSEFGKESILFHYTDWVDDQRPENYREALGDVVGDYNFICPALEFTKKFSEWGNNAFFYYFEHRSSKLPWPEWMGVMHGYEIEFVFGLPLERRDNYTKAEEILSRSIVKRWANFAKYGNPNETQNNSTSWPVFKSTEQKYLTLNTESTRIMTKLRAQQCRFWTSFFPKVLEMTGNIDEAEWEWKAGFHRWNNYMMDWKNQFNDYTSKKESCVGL
### Response 3.00

### Prompt Determine reported log10 of IC50 for CSc1nc(-c2ccc(Cl)cc2)nn1C(=O)N1CCOCC1 ; test system: Cholinesterase (Homo sapiens, UniProt P06276).
### Response 4.15

### Prompt Determine reported log10 of IC50 for CCCSc1nc(-c2ccc(Cl)cc2)nn1C(=O)N(C)C ; test system: Cholinesterase (Homo sapiens, UniProt P06276).
### Response 2.00

### Prompt Determine reported log10 of IC50 for CSc1nc(-c2ccc(-c3ccccc3)cc2)nn1C(=O)N(C)C ; test system: Cholinesterase (Homo sapiens, UniProt P06276).
### Response 2.36

### Prompt Determine reported log10 of IC50 for CCCCCCSc1nc(-c2ccc(C)cc2)nn1C(=O)N(C)C ; test system: Cholinesterase (Homo sapiens, UniProt P06276).
### Response 2.48

### Prompt Determine reported log10 of IC50 for CSc1nc(-c2ccc(C)cc2)nn1C(=O)N(C)C ; test system: Cholinesterase (Homo sapiens, UniProt P06276).
### Response 2.30

### Prompt Determine reported log10 of IC50 for CCSc1nc(-c2ccc(Cl)cc2)nn1C(=O)N(C)C ; test system: Cholinesterase (Homo sapiens, UniProt P06276).
### Response 1.70

### Prompt Determine reported log10 of IC50 for COc1ccc(-c2nc(SC)n(C(=O)N(C)C)n2)cc1 ; test system: Cholinesterase (Homo sapiens, UniProt P06276).
### Response 2.61

### Prompt Determine reported log10 of IC50 for CSc1nc(-c2ccc(OC(F)(F)F)cc2)nn1C(=O)N(C)C ; test system: Cholinesterase (Homo sapiens, UniProt P06276).
### Response 2.30

### Prompt Determine reported log10 of IC50 for CCSc1nc(-c2ccc(OC)cc2)nn1C(=O)N1CCOCC1 ; test system: Cholinesterase (Homo sapiens, UniProt P06276).
### Response 3.60

### Prompt Determine reported log10 of IC50 for CCOc1nn(-c2cccc(OCc3ccccc3)c2)c(=O)o1 ; test system: Cholinesterase (Homo sapiens, UniProt P06276).
### Response 2.96

### Prompt Determine reported log10 of IC50 for Cc1ccc(-c2nc(SCC(F)(F)F)n(C(=O)N(C)C)n2)cc1 ; test system: Cholinesterase (Homo sapiens, UniProt P06276).
### Response 2.66

### Prompt Determine reported log10 of IC50 for CSc1nc(/C=C/c2ccccc2)nn1C(=O)N(C)C ; test system: Cholinesterase (Homo sapiens, UniProt P06276).
### Response 2.57

### Prompt Determine reported log10 of IC50 for CSc1nc(-c2ccc3ccccc3c2)nn1C(=O)N(C)C ; test system: Cholinesterase (Homo sapiens, UniProt P06276).
### Response 2.11

### Prompt Determine reported log10 of IC50 for CSc1nc(-c2ccc(C)cc2)nn1C(=O)N1CCOCC1 ; test system: Cholinesterase (Homo sapiens, UniProt P06276).
### Response 3.30

### Prompt Determine reported log10 of IC50 for CSc1nc(-c2ccc(C(F)(F)F)cc2)nn1C(=O)N(C)C ; test system: Cholinesterase (Homo sapiens, UniProt P06276).
### Response 2.00

### Prompt Determine reported log10 of IC50 for O=C(N1CCCCC1)n1nc(-c2ccc(Cl)cc2)nc1SCC1CC1 ; test system: Cholinesterase (Homo sapiens, UniProt P06276).
### Response 2.95

### Prompt Determine reported log10 of IC50 for CSc1nc(-c2ccc(Cl)cc2)nn1C(=O)N1CCCCC1 ; test system: Cholinesterase (Homo sapiens, UniProt P06276).
### Response 2.95

* * *

Hi there, I'd appreciate the recorded IC50 for every entry that follows.
- target-system: Hormone-sensitive lipase (Homo sapiens)
- Sequence (Q05469 whole entry): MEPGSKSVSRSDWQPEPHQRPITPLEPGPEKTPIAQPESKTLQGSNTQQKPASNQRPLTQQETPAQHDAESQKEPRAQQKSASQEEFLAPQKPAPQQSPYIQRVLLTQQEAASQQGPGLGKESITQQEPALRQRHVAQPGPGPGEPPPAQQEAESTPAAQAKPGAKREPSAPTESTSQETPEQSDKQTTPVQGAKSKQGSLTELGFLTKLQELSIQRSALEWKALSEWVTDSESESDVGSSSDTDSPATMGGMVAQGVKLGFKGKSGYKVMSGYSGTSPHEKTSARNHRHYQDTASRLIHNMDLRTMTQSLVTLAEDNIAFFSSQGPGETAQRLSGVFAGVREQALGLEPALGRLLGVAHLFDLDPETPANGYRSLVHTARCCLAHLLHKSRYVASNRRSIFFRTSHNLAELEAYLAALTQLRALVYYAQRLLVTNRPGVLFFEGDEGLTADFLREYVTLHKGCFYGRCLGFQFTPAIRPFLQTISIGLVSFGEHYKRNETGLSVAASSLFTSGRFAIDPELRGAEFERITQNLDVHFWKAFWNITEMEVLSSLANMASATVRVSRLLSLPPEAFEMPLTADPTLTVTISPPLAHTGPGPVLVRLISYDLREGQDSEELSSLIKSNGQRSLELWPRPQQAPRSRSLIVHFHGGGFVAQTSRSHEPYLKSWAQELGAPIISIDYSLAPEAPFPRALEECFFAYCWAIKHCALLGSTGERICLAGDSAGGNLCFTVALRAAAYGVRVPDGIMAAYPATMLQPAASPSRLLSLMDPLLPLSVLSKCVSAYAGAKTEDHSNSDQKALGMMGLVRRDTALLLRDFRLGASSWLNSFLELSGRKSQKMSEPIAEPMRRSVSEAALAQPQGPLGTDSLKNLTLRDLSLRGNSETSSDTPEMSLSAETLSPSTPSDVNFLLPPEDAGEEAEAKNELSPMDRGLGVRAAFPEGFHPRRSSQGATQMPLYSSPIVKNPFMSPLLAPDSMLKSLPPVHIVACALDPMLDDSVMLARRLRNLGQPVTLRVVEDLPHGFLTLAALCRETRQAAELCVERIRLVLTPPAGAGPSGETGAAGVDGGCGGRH

### Prompt # return recorded IC50 for input CCCCCCSc1nc(-c2ccc(C)cc2)nn1C(=O)N(C)C
### Response > 50000 nM

### Prompt # return recorded IC50 for input CSc1nc(-c2ccc(C)cc2)nn1C(=O)N(C)C
### Response 30 nM

### Prompt # return recorded IC50 for input O=C(N1CCCCC1)n1nc(-c2ccc(Cl)cc2)nc1SCC(F)(F)F
### Response 400 nM

### Prompt # return recorded IC50 for input COc1nn(-c2ccc(NC(=O)c3ccc(C(C)(C)C)cc3)cc2)c(=O)o1
### Response 23 nM

### Prompt # return recorded IC50 for input CSc1nc(-c2ccc(Cl)cc2)nn1C(=O)N1CCCCC1
### Response 100 nM

### Prompt # return recorded IC50 for input CCCCCCSc1nc(-c2ccc(Cl)cc2)nn1C(=O)N1CCCCC1
### Response > 50000 nM

### Prompt # return recorded IC50 for input CSc1nc(-c2ccc(Cl)cc2)nn1C(=O)N(C)c1ccccc1
### Response 160 nM

### Prompt # return recorded IC50 for input CCCCCCSc1nc(-c2ccc(Cl)cc2)nn1C(=O)N1CCOCC1
### Response > 50000 nM

### Prompt # return recorded IC50 for input CCSc1nc(-c2ccc(OC)cc2)nn1C(=O)N(C)c1ccccc1
### Response 300 nM

### Prompt # return recorded IC50 for input CSc1nc(-c2ccc(Cl)cc2)nn1C(=O)N(C)C
### Response 20 nM

### Prompt # return recorded IC50 for input CCCSc1nc(-c2ccc(Cl)cc2)nn1C(=O)N(C)C
### Response 60 nM

### Prompt # return recorded IC50 for input CCOc1nn(-c2cccc(OCc3ccccc3)c2)c(=O)o1
### Response 1100 nM

### Prompt # return recorded IC50 for input Cc1ccc(-c2nc(SCC(F)(F)F)n(C(=O)N(C)C)n2)cc1
### Response 600 nM

### Prompt # return recorded IC50 for input CSc1nc(-c2ccc(C)cc2)nn1C(=O)N1CCOCC1
### Response 4000 nM

### Prompt # return recorded IC50 for input CCCCCCSc1nc(-c2ccc(C)cc2)nn1C(=O)N(C)c1ccccc1
### Response 700 nM

### Prompt # return recorded IC50 for input CSc1nc(/C=C/c2ccccc2)nn1C(=O)N(C)C
### Response > 50000 nM

### Prompt # return recorded IC50 for input CSc1nc(-c2ccc(C(F)(F)F)cc2)nn1C(=O)N(C)C
### Response 100 nM

### Prompt # return recorded IC50 for input CCSc1nc(-c2ccc(OC)cc2)nn1C(=O)N1CCOCC1
### Response 9000 nM

### Prompt # return recorded IC50 for input CSc1nc(-c2ccc(OC(F)(F)F)cc2)nn1C(=O)N(C)c1ccccc1
### Response 250 nM

### Prompt # return recorded IC50 for input CSc1nc(-c2ccc(OC(F)(F)F)cc2)nn1C(=O)N(C)C
### Response 100 nM

### Prompt # return recorded IC50 for input CN(C(=O)n1nc(-c2ccc(Cl)cc2)nc1SCC(F)(F)F)c1ccccc1
### Response 170 nM

### Prompt # return recorded IC50 for input CN(C(=O)n1nc(-c2ccc(Cl)cc2)nc1SCC1CC1)c1ccccc1
### Response 62 nM

### Prompt # return recorded IC50 for input CSc1nc(-c2ccc3ccccc3c2)nn1C(=O)N(C)C
### Response 2000 nM

### Prompt # return recorded IC50 for input CSc1nc(-c2ccc(Cl)cc2)nn1C(=O)N1CCOCC1
### Response 2000 nM

### Prompt # return recorded IC50 for input CSc1nc(-c2ccc(C)cc2)nn1C(=O)N(C)c1ccccc1
### Response 100 nM

### Prompt # return recorded IC50 for input CSc1nc(-c2ccc(-c3ccccc3)cc2)nn1C(=O)N(C)C
### Response 1500 nM

### Prompt # return recorded IC50 for input O=C(N1CCOCC1)n1nc(-c2ccc(Cl)cc2)nc1SCC(F)(F)F
### Response 9000 nM

### Prompt # return recorded IC50 for input CCCCCCSc1nc(-c2ccc(Cl)cc2)nn1C(=O)N(C)c1ccccc1
### Response 400 nM

### Prompt # return recorded IC50 for input Cc1c(C(C)C)c(=O)on1C(=O)N1CCC[C@H](C)C1
### Response 170 nM

### Prompt # return recorded IC50 for input O=C(N1CCCCC1)n1nc(-c2ccc(Cl)cc2)nc1SCC1CC1
### Response 200 nM

### Prompt # return recorded IC50 for input COc1ccc(-c2nc(SC)n(C(=O)N(C)C)n2)cc1
### Response 900 nM

### Prompt # return recorded IC50 for input CCSc1nc(-c2ccc(Cl)cc2)nn1C(=O)N(C)C
### Response 210 nM
